molecular target: T1, human LILRB1 (human, UniProt Q8NHL6 24-650); test: FACS, 293F-hLILRB1 cells
T1 construct: whole, on cells; also called hLILRB1
T1 sequence (Q8NHL6 24-650): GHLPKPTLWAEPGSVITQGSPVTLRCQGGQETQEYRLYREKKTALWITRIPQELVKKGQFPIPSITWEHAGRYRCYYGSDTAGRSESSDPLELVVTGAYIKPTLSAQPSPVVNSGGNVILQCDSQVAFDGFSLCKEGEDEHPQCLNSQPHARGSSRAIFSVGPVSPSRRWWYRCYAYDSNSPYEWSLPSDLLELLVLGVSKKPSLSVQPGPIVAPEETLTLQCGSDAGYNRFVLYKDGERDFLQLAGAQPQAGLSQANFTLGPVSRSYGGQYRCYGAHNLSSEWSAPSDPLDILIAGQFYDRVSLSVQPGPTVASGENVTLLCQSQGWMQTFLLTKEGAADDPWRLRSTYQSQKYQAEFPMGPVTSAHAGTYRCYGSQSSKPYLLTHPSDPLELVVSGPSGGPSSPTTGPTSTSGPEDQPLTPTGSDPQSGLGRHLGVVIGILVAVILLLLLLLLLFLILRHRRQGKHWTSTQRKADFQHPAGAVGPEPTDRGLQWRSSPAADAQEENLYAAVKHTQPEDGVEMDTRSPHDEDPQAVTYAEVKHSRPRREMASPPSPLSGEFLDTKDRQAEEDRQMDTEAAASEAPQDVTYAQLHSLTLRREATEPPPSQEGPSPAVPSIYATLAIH
Binary call on MFI: yes from 20 MFI upward, no beneath that.

binder: 48-E11-H7-B5 (antibody, V domains shown, mouse monoclonal hybridoma antibody) VH: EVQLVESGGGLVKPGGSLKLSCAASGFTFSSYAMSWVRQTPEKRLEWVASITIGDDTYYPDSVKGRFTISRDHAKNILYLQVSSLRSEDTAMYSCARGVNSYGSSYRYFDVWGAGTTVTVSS VL: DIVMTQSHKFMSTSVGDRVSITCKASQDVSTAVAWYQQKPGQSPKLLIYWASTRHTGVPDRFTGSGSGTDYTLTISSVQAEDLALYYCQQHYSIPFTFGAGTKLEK
assignedClass: yes

Req: Please indicate if the recorded MFI for 8-B3-F6-H8 (antibody, V domains shown, mouse monoclonal hybridoma antibody) VH: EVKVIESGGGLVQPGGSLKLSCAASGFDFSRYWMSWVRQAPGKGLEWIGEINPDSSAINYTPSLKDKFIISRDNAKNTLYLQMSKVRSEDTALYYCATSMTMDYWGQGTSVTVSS VL: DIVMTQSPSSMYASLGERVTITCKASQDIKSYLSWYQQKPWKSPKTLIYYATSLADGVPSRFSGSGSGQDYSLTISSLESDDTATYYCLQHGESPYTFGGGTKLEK meets or exceeds 20 MFI.
Resp: no

Req: Does MFI meet or surpass 20 MFI for 27-F11-E10-G10 (antibody, V domains shown, mouse monoclonal hybridoma antibody) VH: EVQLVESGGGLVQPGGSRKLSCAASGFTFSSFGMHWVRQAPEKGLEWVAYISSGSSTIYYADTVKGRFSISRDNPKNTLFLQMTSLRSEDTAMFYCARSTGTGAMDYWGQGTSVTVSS VL: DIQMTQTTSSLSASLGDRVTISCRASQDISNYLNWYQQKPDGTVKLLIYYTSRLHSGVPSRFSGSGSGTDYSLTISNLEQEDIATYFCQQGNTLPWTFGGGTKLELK ?
Resp: yes

Req: Could you please find out whether 44-F10-B6-D4 (antibody, V domains shown, mouse monoclonal hybridoma antibody) VH: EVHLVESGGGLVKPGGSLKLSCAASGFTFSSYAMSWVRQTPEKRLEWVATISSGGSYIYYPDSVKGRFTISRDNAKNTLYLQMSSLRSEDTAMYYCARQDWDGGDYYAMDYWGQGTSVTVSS VL: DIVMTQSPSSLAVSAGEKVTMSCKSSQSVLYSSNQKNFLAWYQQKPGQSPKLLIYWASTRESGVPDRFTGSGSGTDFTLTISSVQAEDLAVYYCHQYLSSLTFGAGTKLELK has MFI that meets 20 MFI or exceeds it?
Resp: yes

Req: Quick check: does 43-D12-F3-G11 (antibody, V domains shown, mouse monoclonal hybridoma antibody) VH: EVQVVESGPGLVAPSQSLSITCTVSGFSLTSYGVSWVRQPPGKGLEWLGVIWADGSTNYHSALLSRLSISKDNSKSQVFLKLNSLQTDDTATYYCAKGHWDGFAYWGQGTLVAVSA VL: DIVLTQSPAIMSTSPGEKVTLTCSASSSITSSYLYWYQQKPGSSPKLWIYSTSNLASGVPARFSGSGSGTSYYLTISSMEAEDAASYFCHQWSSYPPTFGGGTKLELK have MFI greater than or equal to 20 MFI?
Resp: yes
